B1: library; numbered along this chain (parent)
chain: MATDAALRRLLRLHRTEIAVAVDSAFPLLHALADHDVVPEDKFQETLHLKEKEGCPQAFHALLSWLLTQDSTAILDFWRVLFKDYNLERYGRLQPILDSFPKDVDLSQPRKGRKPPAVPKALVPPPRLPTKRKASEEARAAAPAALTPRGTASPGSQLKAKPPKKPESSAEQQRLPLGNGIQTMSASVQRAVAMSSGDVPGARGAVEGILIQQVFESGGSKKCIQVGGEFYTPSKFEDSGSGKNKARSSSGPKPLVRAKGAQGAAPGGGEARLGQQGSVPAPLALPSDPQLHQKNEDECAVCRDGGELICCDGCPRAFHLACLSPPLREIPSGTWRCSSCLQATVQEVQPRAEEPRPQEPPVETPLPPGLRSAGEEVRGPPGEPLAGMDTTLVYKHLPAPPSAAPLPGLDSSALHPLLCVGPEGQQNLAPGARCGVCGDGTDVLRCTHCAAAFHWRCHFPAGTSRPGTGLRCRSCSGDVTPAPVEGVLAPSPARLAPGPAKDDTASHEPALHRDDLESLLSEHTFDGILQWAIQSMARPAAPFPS

# Variants of: B1
# experiment.notes: AIRE transcriptional activation functional score (insulin promoter-GFP; nonsense median 0, synonymous median 1) (normalised score); higher = higher AIRE activity (more reporter activation)
# test.conditions: with insulin promoter-GFP reporter in HEK293
quantity.measured: AIRE transcriptional activation functional score
Could you keep your reply to the number by itself?

What value of AIRE transcriptional activation functional score has been recorded for this entry: "E359G" 1.02

What value of AIRE transcriptional activation functional score has been recorded for this entry: "A186Q" 0.6

What value of AIRE transcriptional activation functional score has been recorded for this entry: "R433V" 0.599

What value of AIRE transcriptional activation functional score has been recorded for this entry: "V420P" 1.01
